# TESTED TARGET: human matriptase-2 (Homo sapiens, UniProt Q8IU80)
# Construct: The conditioned medium of HEK-MT2 cells was used as a source of matriptase-2 activity; expressed in transfected cells; host or cells: HEK-MT2 cells (conditioned medium, collected and concentrated)
# Sequence (Q8IU80 577-811 limits assumed): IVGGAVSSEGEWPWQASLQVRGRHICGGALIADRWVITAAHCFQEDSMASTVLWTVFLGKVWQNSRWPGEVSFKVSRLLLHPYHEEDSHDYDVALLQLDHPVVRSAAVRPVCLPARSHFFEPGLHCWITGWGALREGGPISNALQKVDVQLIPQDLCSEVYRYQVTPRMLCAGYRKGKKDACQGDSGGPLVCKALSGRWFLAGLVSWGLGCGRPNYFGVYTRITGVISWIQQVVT
# Sequence (Q8IU80 438-576 partner limits assumed): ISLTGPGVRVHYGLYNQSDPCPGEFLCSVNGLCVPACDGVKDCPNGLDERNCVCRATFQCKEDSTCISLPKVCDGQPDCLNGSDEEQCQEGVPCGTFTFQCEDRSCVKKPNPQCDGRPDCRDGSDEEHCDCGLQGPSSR
# PROCEDURE DETAILS: Human matriptase-2 inhibition, fluorogenic substrate Boc-Gln-Ala-Arg-AMC, conditioned medium of HEK-MT2 cells
# Assay type: biochemical
# CONDITION SET: Table 2, 2,3-dihydro-1,4-benzodioxines and 3,4-dihydro-2H-1,4-benzoxazines; substrate 40 µM, pH 8.0, 37 °C; values with SEM: duplicate, five inhibitor concentrations; limits: duplicate, single inhibitor concentration of 40 µM; read-out: IC50 (µM) ± SEM
Measured IC50, listed per entry.
Give a bare numeral; the unit µM is implied.

Worked cases, answers included:
MOLECULE | IC50, µM
CN1CC(C)(COc2ccc(C(=N)N)cc2)Oc2ccc(N(Cc3cc(F)cc(F)c3)C(=O)C(=O)O)cc21 (stereo not drawn) | 35.8
CN1CC(C)(COc2ccc(C(=N)N)cc2)Oc2ccc(N(CC(=O)O)Cc3ccc(F)cc3)cc21 (stereo not drawn) | 11.2
N=C(N)c1ccc(OC[C@@H]2COc3cc(N(Cc4ccccc4)C(=O)C(=O)O)ccc3O2)cc1 [(R)-11] | 33.6

Task: What value of IC50 has been reported for the following molecule? COC(=O)C(Cc1ccccc1)C(=O)Nc1ccc2c(c1)OC(C)(COc1ccc(C(=N)N)cc1)CN2C (stereo not drawn)
Result: 31.4

Task: Given the molecule CCOC(=O)[C@H](CNC(=O)CN1C(=O)COc2cc(NC(=O)c3ccc(C(=N)N)cc3)ccc21)NS(=O)(=O)c1ccc(C)cc1 , what is its reported IC50?
Result: 20.5

Task: What IC50 value was documented for this molecule, N=C(N)c1ccc(OC[C@@H]2COc3ccc(N(Cc4ccccc4)C(=O)C(=O)O)cc3O2)cc1 [(R)-10] ?
Result: 27.3

====

# TESTED TARGET: human matriptase-2 (Homo sapiens)
# Construct: The conditioned medium of HEK-MT2 cells was used as a source of matriptase-2 activity; expressed in transfected cells; host or cells: HEK-MT2 cells (conditioned medium, collected and concentrated)
# Sequence (Q8IU80 577-811 limits assumed): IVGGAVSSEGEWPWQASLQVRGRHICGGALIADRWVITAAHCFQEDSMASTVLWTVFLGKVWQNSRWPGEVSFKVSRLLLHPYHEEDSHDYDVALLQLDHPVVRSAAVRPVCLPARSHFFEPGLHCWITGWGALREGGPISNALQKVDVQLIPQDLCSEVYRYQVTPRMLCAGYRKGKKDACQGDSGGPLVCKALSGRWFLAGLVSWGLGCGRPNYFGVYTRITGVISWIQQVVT
# Sequence (Q8IU80 438-576 partner limits assumed): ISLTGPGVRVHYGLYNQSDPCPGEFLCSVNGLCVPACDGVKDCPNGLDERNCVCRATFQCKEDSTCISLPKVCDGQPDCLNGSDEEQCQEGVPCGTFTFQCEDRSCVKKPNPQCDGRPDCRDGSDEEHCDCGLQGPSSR
# PROCEDURE DETAILS: Human matriptase-2 inhibition, fluorogenic substrate Boc-Gln-Ala-Arg-AMC, conditioned medium of HEK-MT2 cells
# Assay type: biochemical
# CONDITION SET: Table 2, 2,3-dihydro-1,4-benzodioxines and 3,4-dihydro-2H-1,4-benzoxazines; substrate 40 µM, pH 8.0, 37 °C; values with SEM: duplicate, five inhibitor concentrations; limits: duplicate, single inhibitor concentration of 40 µM; read-out: IC50 (µM) ± SEM
# IC50 per record follows

# count of solved cases: 2
COMPOUND | TESTED TARGET | IC50
CN1CC(C)(COc2ccc(C(=N)N)cc2)Oc2cc(N(Cc3ccc(F)cc3)C(=O)C(=O)O)ccc21 (stereo not drawn) | human matriptase-2 (Homo sapiens) | > 40 µM
COc1ccc2cc(S(=O)(=O)NN(Cc3cccc(C(=N)N)c3)C(=O)N(C)C3CCCC3)ccc2c1 | human matriptase-2 (Homo sapiens) | > 40 µM

Task: Using the record for CCOC(=O)C1CCN(c2ccc(N3C[C@@H](CNCc4ccc(C(=N)N)cc4)OC3=O)cc2)CC1 [(R)-24] , report its IC50.
Result: > 40 µM
